# assayed system: KCNQ 2/3 channels (HEK293 cells stably expressing human KCNQ2 and KCNQ3 subunits) (Homo sapiens, UniProt O43525+O43526)
# Construct: expressed in transfected cells; host or cells: HEK293
# test name: KCNQ2/3 channel activation, thallium flux FLIPR assay with BTC-AM dye
# Assay type: cell-based
# assay context: HEK293; maximum response relative to the response produced by 10 μM retigabine (set at 100%); read-out: Max. %
For each of the compounds below, state its Emax.
Give the number; % is assumed, so skip it.

Hello, please tell me recorded Emax for this one: CN(C)C(=O)c1ccc(-c2nn(NC(=O)CC3CC4CCC3C4)c(=O)c3ccccc23)cc1 (racemic) 50

Hello, please tell me recorded Emax for this one: O=C(CC1CC2CCC1C2)Nn1nc(C2CCCCC2)c2ccccc2c1=O (racemic) 165

Hello, please tell me recorded Emax for this one: CC(C)c1ccc(-c2nn(NC(=O)Cc3cc(F)cc(F)c3)c(=O)c3ccccc23)cc1 134

Hello, please tell me recorded Emax for this one: O=C(CC12CC3CC(CC(C3)C1)C2)Nn1nc(-c2ccccc2)c2c(c1=O)CCC2 152

Hello, please tell me recorded Emax for this one: O=C(CC12CC3CC(CC(C3)C1)C2)Nn1nc(-c2ccccc2)c2cc(F)ccc2c1=O 179

Hello, please tell me recorded Emax for this one: O=C(Cc1ccc(Cl)s1)Nn1nc(C(F)(F)F)c2ccccc2c1=O 72

Hello, please tell me recorded Emax for this one: CC(C)c1nn(NC(=O)CC23CC4CC(CC(F)(C4)C2)C3)c(=O)c2ccccc12 214

Hello, please tell me recorded Emax for this one: O=C(CC1(C(F)(F)F)CCCC1)Nn1nc(-c2ccc(Cl)cc2)c2ccccc2c1=O 104

Hello, please tell me recorded Emax for this one: COc1ccc(-c2nn(NC(=O)CC34CC5CC(CC(C5)C3)C4)c(=O)c3ccccc23)cc1 136

Hello, please tell me recorded Emax for this one: O=C(Cc1ccc(C(F)(F)F)cc1)Nn1nc(-c2ccc(Cl)cc2)c2ccccc2c1=O 81

Hello, please tell me recorded Emax for this one: O=C(C[C@H]1C[C@@H]2CC[C@H]1C2)Nn1nc(C2(c3ccccc3)CC2)c2ccccc2c1=O (racemic) 195

Hello, please tell me recorded Emax for this one: O=C(C[C@@H]1C[C@@H]2CC[C@H]1C2)Nn1nc(C2CCC2)c2ccccc2c1=O 148

Hello, please tell me recorded Emax for this one: O=C(CCC(F)(F)F)Nn1nc(-c2ccc(Cl)cc2)c2ccccc2c1=O 48

Hello, please tell me recorded Emax for this one: O=C(C[C@H]1C[C@@H]2CC[C@H]1C2)Nn1nc(C2CCC2)c2ccccc2c1=O (racemic) 164

Hello, please tell me recorded Emax for this one: Cc1ccc(-c2nn(NC(=O)CC3CC4CCC3C4)c(=O)c3ccccc23)cc1C (racemic) 177

Hello, please tell me recorded Emax for this one: O=C(Cc1ccc(Br)cc1)Nn1nc(-c2ccc(Cl)cc2)c2ccccc2c1=O 112

Hello, please tell me recorded Emax for this one: O=C(Cc1cc(F)cc(F)c1)Nn1nc(-c2ccccc2)c2sccc2c1=O 179

Hello, please tell me recorded Emax for this one: O=C(Cc1cc(F)cc(F)c1)Nn1nc(Cc2ccc(Cl)cc2)c2ccccc2c1=O 83

Hello, please tell me recorded Emax for this one: O=C(Cc1cc(F)cc(F)c1)Nn1nc(Cl)c2ccccc2c1=O 45

Hello, please tell me recorded Emax for this one: CC(C)c1nn(NC(=O)CC23CC4CC(CC(C4)C2)C3)c(=O)c2c1C1CCC2CC1 79

Hello, please tell me recorded Emax for this one: CC(C)(C)CC(=O)Nn1nc(C(F)(F)F)c2ccccc2c1=O 77

Hello, please tell me recorded Emax for this one: O=C(Cc1cc(F)cc(F)c1)Nn1nc(-c2ccccc2)c2c(c1=O)CCC2 131

Hello, please tell me recorded Emax for this one: Cc1ccc(-c2nn(NC(=O)Cc3cc(F)cc(F)c3)c(=O)c3ccccc23)cc1 130

Hello, please tell me recorded Emax for this one: O=C(CC1CC2CCC1C2)Nn1nc(-c2ccc(Cl)cc2)c2c(F)ccc(F)c2c1=O (racemic) 154

Hello, please tell me recorded Emax for this one: O=C(CC1CC2CCC1C2)Nn1nc(CCc2ccccc2)c2ccccc2c1=O (racemic) 144

Hello, please tell me recorded Emax for this one: O=C(C[C@H]1C[C@@H]2CC[C@H]1C2)Nn1nc(-c2ccc(F)cc2F)c2ccccc2c1=O (racemic) 192

Hello, please tell me recorded Emax for this one: CC(C)c1nn(NC(=O)CC23CC4CC(C)(CC(C)(C4)C2)C3)c(=O)c2ccccc12 184

Hello, please tell me recorded Emax for this one: Cc1ccc(CC(=O)Nn2nc(C(F)(F)F)c3ccccc3c2=O)s1 51

Hello, please tell me recorded Emax for this one: O=C(Cc1ccc(Cl)cc1)Nn1nc(C2CC2)c2ccccc2c1=O 63

Hello, please tell me recorded Emax for this one: O=C(Cc1ccc2c(c1)OCO2)Nn1nc(-c2ccc(Cl)cc2)c2ccccc2c1=O 248

Hello, please tell me recorded Emax for this one: CC(C)(CC(=O)Nn1nc(-c2ccc(Br)cc2)c2ccccc2c1=O)c1ccccc1 117

Hello, please tell me recorded Emax for this one: O=C(Cc1ccc(Cl)s1)Nn1nc(-c2ccc(Cl)cc2)c2ccccc2c1=O 92

Hello, please tell me recorded Emax for this one: O=C(Cc1ccc(F)cc1)Nn1nc(-c2ccccc2)c2ccccc2c1=O 157

Data origin: patent US8629143B2
